# Target Desc: Beta-secretase 2 (Homo sapiens, UniProt Q9Y5Z0)
# Sequence (Q9Y5Z0 whole entry): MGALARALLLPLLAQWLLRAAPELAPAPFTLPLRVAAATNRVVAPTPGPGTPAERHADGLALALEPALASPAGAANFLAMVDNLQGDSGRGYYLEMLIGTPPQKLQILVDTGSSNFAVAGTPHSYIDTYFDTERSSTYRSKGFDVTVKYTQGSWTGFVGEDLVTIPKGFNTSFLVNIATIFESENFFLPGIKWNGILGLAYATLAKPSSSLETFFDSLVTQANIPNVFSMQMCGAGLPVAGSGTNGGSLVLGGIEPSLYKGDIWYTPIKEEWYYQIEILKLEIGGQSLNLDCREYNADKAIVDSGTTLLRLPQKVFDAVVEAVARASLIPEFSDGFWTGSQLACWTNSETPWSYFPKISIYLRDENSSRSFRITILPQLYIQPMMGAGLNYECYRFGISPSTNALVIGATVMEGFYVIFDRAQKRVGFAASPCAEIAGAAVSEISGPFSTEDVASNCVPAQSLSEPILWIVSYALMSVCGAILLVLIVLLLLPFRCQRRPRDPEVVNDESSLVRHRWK
Assay Endpoint: pIC50
Numbers only, as −log10 of the molar value.

// query pIC50 value for entry CC[C@@H](CC(=O)NCC1CCCCC1)n1c(N)nc2cc(Cl)ccc21
5.10

----------
So I've got a bunch of molecules here, and I need their IC50 values.
# Target Desc: Beta-secretase 1 (Homo sapiens, UniProt P56817)
# Sequence (P56817 whole entry): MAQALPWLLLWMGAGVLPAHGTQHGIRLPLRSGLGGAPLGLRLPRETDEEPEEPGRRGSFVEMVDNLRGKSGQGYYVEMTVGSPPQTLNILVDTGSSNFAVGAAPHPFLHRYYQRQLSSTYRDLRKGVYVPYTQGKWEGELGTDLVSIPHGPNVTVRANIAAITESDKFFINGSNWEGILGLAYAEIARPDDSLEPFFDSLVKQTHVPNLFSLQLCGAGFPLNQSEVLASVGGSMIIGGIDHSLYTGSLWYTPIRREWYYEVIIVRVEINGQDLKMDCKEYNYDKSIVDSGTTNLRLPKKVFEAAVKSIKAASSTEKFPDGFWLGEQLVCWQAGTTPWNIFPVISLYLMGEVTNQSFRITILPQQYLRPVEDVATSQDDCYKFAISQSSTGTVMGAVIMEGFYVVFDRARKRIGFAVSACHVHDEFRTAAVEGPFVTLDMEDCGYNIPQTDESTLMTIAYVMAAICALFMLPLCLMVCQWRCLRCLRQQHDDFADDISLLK
# Method Summary: Inhibition of BACE1 assessed as amyloid beta secretion by cell based assay
Numbers only, in µM.

Worked cases, answers included:
Molecule	IC50, µM
Nc1nc2cc(Cl)ccc2n1CCCC(=O)NCCC1CCNC1 (configuration not stated)	444
Nc1nc2cc(Cl)ccc2n1CCCC(=O)NCc1cccc(F)c1	249
Nc1nc2cc(Cl)ccc2n1CCCC(=O)NCCN1CCOCC1	827
CC(C)C[C@@H](CC(=O)NCc1ccccn1)n1c(N)nc2cc(Cl)ccc21	235
CN(Cc1cccc(F)c1)C(=O)CCCn1c(N)nc2cc(Cl)ccc21	194

Need IC50 for each of these molecules.
1. CC[C@@H](CC(=O)N[C@@H](COC(C)(C)C)C(=O)OC)n1c(N)nc2cc(Cl)ccc21
2. CC[C@H](CC(=O)NCc1ccccc1)n1c(N)nc2cc(Cl)ccc21
3. CN(CC1CCCCC1)C(=O)CCCn1c(N)nc2cc(Cl)ccc21
4. CC[C@@H](CC(=O)NCC1CC1)n1c(N)nc2cc(Cl)ccc21

168
516
59
243

// query IC50 value for entry CC[C@@H](CC(=O)N(C)CC1CCCCC1)n1c(N)nc2cc(Cl)ccc21
375
